Tested on: HEK293 cells
Assay: MTT cell viability assay, HEK293
Type: cell-based, human
Conditions: 48 h
READOUT_NAME: IC50 (µM)
I only need the number, in µM, no unit after it.

{"columns": ["COMPOUND", "IC50 / µM"],
 "data": [
  ["CC1CCC2C(C)C(OC(=O)CCC(=O)OC[c-]3cccc3)OC3OC4(C)CCC1C32OO4.[Fe+2].c1cc[cH-]c1 (stereo not shown)", 53]
]}

Tested on HEK293 cells: CC1CCC2C(C)C(OC(=O)CCC(=O)NC[c-]3cccc3)OC3OC4(C)CCC1C32OO4.[Fe+2].c1cc[cH-]c1 (stereo not shown) . Observed IC50: 36

====

Experiment: Kinetic aqueous solubility, turbidimetric assay
Assay type: physicochemical
Details: turbidimetric assay, buffer not named
READOUT_NAME: Solubility range

{"columns": ["COMPOUND", "Solubility range"],
 "data": [
  ["CC1CCC2C(C)C(OC(=O)CCC(=O)OC[c-]3cccc3)OC3OC4(C)CCC1C32OO4.[Fe+2].c1cc[cH-]c1 (stereo not shown)", "23 to 47 µg/mL"],
  ["CC1CCC2C(C)C(OC(=O)CCC(=O)OCCNC(=O)[c-]3cccc3)OC3OC4(C)CCC1C32OO4.[Fe+2].c1cc[cH-]c1 (stereo not shown)", "25 to 51 µg/mL"],
  ["CC1CCC2C(C)C(OC(=O)CCC(=O)NC[c-]3cccc3)OC3OC4(C)CCC1C32OO4.[Fe+2].c1cc[cH-]c1 (stereo not shown)", "3 to 6 µg/mL"]
]}

Consider the additional compound presented here.
Just so you know, measured Solubility range for CC1CCC2C(C)C(OC(=O)CCC(=O)NCCNC(=O)[c-]3cccc3)OC3OC4(C)CCC1C32OO4.[Fe+2].c1cc[cH-]c1 (stereo not shown) came out at 3 to 6 µg/mL

====

Assay: Cyclic voltammetry (oxidation/reduction potentials)
Type: physicochemical
Conditions: Ag/AgCl electrode, scan rate 100 mV s^−1, 0.100 M [NBu4][PF6] in MeCN
Listing of entries alongside the reported E Ox.

{"columns": ["COMPOUND", "RECORDED_VALUE"],
 "data": [
  ["CC1CCC2C(C)C(OC(=O)CCC(=O)OC[c-]3cccc3)OC3OC4(C)CCC1C32OO4.[Fe+2].c1cc[cH-]c1 (centres unmarked) [Compound C2]", "0.561 V"]
]}

Sample [Fe+2].c1cc[cH-]c1.c1cc[cH-]c1 [Ferrocene, reference compound] ; E Ox observed: 0.499 V

CC1CCC2C(C)C(OC(=O)CCC(=O)NC[c-]3cccc3)OC3OC4(C)CCC1C32OO4.[Fe+2].c1cc[cH-]c1 (centres unmarked) [Compound C4] yielded E Ox of 0.400 V

Summary for this compound, CC1CCC2C(C)C(OC(=O)CCC(=O)NCCNC(=O)[c-]3cccc3)OC3OC4(C)CCC1C32OO4.[Fe+2].c1cc[cH-]c1 (centres unmarked) [Compound C3] : E Ox is 0.660 V

Record CC1CCC2C(C)C(OC(=O)CCC(=O)OCCNC(=O)[c-]3cccc3)OC3OC4(C)CCC1C32OO4.[Fe+2].c1cc[cH-]c1 (centres unmarked) [Compound C1] , field E Ox: 0.658 V

====

Test system: PNT1A cells
Test: MTT cell viability assay, PNT1A
Format: cell-based, human
Conditions: 48 h
READOUT_NAME: IC50

{"columns": ["COMPOUND", "IC50"],
 "data": [
  ["CC1CCC2C(C)C(OC(=O)CCC(=O)NCCNC(=O)[c-]3cccc3)OC3OC4(C)CCC1C32OO4.[Fe+2].c1cc[cH-]c1 (stereo not shown)", "> 50 µM"]
]}

So for CC1CCC2C(C)C(OC(=O)CCC(=O)OC[c-]3cccc3)OC3OC4(C)CCC1C32OO4.[Fe+2].c1cc[cH-]c1 (stereo not shown) , the logged IC50 turned out to be > 100 µM

The reported value for CC1CCC2C(C)C(OC(=O)CCC(=O)OCCNC(=O)[c-]3cccc3)OC3OC4(C)CCC1C32OO4.[Fe+2].c1cc[cH-]c1 (stereo not shown) in terms of IC50 is > 100 µM

IC50 for CC1CCC2C(C)C(OC(=O)CCC(=O)NC[c-]3cccc3)OC3OC4(C)CCC1C32OO4.[Fe+2].c1cc[cH-]c1 (stereo not shown) is > 50 µM
